assay: Compound chemical stability PBS (pH 6.5); settings: PBS pH 6.5, 60 minutes
Recorded measurements of % Remaining, one per entry
Response body: numeric value in %, unit text excluded.

Before answering, review these 8 worked examples.
- COMPOUND: "CC(Cc1ccc2c(c1)OCO2)N(C)C(=O)CN (stereo not drawn) [Compound 4]"
  UNIT TEXT: "%"
  % Remaining: 92.54
- COMPOUND: "Cc1oc(=O)oc1CN[C@H](C)Cc1ccc2c(c1)OCO2 [Compound 8]"
  UNIT TEXT: "%"
  % Remaining: 93
- COMPOUND: "CC(OC(=O)N(C)C(C)Cc1ccc2c(c1)OCO2)OC(=O)C(C)(C)C (stereo not drawn) [Compound 3]"
  UNIT TEXT: "%"
  % Remaining: 107.91
- COMPOUND: "CCOC(=O)N(C)C(C)Cc1ccc2c(c1)OCO2 (stereo not drawn) [Compound 1]"
  UNIT TEXT: "%"
  % Remaining: 90.36
- COMPOUND: "C[C@H](Cc1ccc2c(c1)OCO2)NC(=O)OC(C)(C)C [Compound 6]"
  UNIT TEXT: "%"
  % Remaining: 93.60
- COMPOUND: "CC(Cc1ccc2c(c1)OCO2)NC(=O)CN (stereo not drawn) [Compound 5]"
  UNIT TEXT: "%"
  % Remaining: 97.09
- COMPOUND: "C[C@H](Cc1ccc2c(c1)OCO2)N(C)C(=O)OC(C)(C)C [Compound 7]"
  UNIT TEXT: "%"
  % Remaining: 105.49
- COMPOUND: "CCOC(=O)NC(C)Cc1ccc2c(c1)OCO2 (stereo not drawn) [Compound 2]"
  UNIT TEXT: "%"
  % Remaining: 87.87

Proceeding to the next compound to report its % Remaining.
Query: Name the reported % Remaining value associated with the compound Cc1oc(=O)oc1CN(C)[C@H](C)Cc1ccc2c(c1)OCO2 [Compound 9]
Response: 75
